Each recorded value in this set is attributed to ChEMBL document CHEMBL1146124.

# assay.name: Plasma clearance in rat at 1 mg/kg, iv
# Assay type: ADME, organism-based
# Parameters: dose 1 mg/kg, route intravenous
quantity.name: clearance (mL/min/kg)

> print(dat)
                           substance.smiles  result.unit  reading
1  CN(C)C(=O)N1CC(c2cc(F)ccc2F)=C[C@H]1c1cccc(O)c1    mL/min/kg       68
2  CC(C)(C)[C@H](NC(=O)OCCO)C(=O)N1CC(c2cc(F)ccc2F)=C[C@H]1c1ccccc1    mL/min/kg       68

* * *

# assay.name: Plasma clearance in dog at 0.4 mg/kg, iv
# Assay type: ADME, organism-based, Canis lupus familiaris
# Design: dose 0.4 mg/kg, route intravenous
quantity.name: clearance (mL/min/kg)

> print(dat)
                           substance.smiles  quantity.name  result.unit  reading
1  CC(C)(C)[C@H](NC(=O)OCCO)C(=O)N1CC(c2cc(F)ccc2F)=C[C@H]1c1ccccc1      clearance    mL/min/kg       11
2  CN(C)C(=O)N1CC(c2cc(F)ccc2F)=C[C@H]1c1cccc(O)c1      clearance    mL/min/kg       13
